Test: Phase I dose-escalating study, plasma pharmacokinetics in patients with solid tumor
Assay type: in vivo, human
Conditions: human, plasma, 150 mg, 150 mg QD 4/1 (n = 5), nominal time 2 h; read-out: Mean plasma concentration following the last dose on cycle 1 day 28
observable: concentration at 2 h
Be sure to follow the number with its unit.

Q: Answer with the recorded concentration at 2 h of Cc1[nH]c(/C=C2\C(=O)Nc3ccc(F)cc32)c(C)c1C(=O)NC[C@H](O)CN1CCOCC1 [compound 1] only.
A: 252 ng/mL

----------
Assay: Phase I dose-escalating study, plasma pharmacokinetics in patients with solid tumor
Format: in vivo, human
Conditions: human, plasma, 200 mg, 200 mg QD (4/1), C2D28 (n = 5), plasma; read-out: C(trough, 24 h), mean (% CV)
observable: concentration at 24 h

Q: Hello, please tell me recorded concentration at 24 h for this one: Cc1[nH]c(/C=C2\C(=O)Nc3ccc(F)cc32)c(C)c1C(=O)NC[C@H](O)CN1CCOCC1
A: 211 ng/mL
